Sourced from paper PMC10716038

Molecular target: T1, talin-1 head domain (THD1) (UniProt P26039 1-405)
T1 construct: talin-1 (TLN1) head domain (THD), residues 1-405; murine TLN1 cDNA is named only for the cell lines; also called WT; source: E. coli (DE3) Rosetta 2, purified (IMAC, SEC); not shown: His10-SUMO, N-terminal, cleaved
T1 sequence (P26039 1-405): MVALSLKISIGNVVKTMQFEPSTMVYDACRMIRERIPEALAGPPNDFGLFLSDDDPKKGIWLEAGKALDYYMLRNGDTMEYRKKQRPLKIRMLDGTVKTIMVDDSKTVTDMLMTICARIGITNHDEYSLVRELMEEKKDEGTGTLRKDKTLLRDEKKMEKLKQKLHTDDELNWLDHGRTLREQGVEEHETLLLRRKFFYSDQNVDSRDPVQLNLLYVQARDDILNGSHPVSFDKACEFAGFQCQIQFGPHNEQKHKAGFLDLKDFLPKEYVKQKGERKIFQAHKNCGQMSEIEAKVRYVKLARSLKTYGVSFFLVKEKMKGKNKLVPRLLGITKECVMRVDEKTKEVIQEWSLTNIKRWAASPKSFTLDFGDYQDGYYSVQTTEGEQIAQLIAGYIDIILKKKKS
Experiment: MST; unlabelled protein titrated to 50-200 nM ATTO 488-labelled β-CT peptide, no third protein; 20 mM Tris pH 7.5, 200 mM NaCl, 1 mM TCEP, 0.05% Tween-20; Kd of individual titrations (in S0002 mean and sd, n = 2)
Settings: both partners purified
No end group written: not given here.
assay-metric: pKd
Answers are plain numbers, as −log10 of the molar value.

Suppose we examine the binder {ATTO 488}-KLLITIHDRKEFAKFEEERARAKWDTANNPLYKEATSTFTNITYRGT (peptide, UniProt O54890 741-787, looked up, integrin β3 cytoplasmic tail (β3-CT); source: synthetic peptide (MPIB Core Facility)) [ATTO 488-labeled integrin β3 cytoplasmic tail (488–β3-CT)] ; what pKd value has been reported?
3.98
